TARGET DESC: Prostaglandin E2 receptor EP4 subtype (Mus musculus, UniProt P32240)
Sequence (P32240 whole entry): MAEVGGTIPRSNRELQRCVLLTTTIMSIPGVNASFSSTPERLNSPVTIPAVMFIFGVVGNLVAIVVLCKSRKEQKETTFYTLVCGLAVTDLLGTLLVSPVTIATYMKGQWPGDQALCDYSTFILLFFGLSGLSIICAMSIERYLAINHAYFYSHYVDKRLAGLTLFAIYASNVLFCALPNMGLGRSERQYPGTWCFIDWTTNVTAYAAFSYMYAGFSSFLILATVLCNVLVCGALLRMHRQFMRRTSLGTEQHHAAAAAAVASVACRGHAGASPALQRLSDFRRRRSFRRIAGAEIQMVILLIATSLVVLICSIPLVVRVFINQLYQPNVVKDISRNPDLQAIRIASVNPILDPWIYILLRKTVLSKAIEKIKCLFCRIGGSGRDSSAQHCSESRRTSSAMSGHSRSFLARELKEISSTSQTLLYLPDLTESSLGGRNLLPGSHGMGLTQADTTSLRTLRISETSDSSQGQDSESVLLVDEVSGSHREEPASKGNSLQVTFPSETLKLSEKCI
PROCEDURE SUMMARY: Evaluated for its competitive binding affinity towards mouse Prostanoid EP4 receptor in CHO cells expressing prostanoid receptor
QUANTITY MEASURED: Ki (nM)

Worked set:
[in] Return the recorded Ki value; entry: `COCCCc1cccc(C[C@H](O)/C=C/[C@H]2[C@H](O)CC(=O)[C@@H]2SCCCSCC(=O)O)c1`
[out] 100

[in] Return the recorded Ki value; entry: `CCCCC[C@H](O)/C=C/[C@H]1[C@H](O)CC(=O)[C@@H]1SCCCCCC(=O)O`
[out] 0.7

[in] Return the recorded Ki value; entry: `CCCCC[C@H](O)/C=C/[C@H]1[C@H](O)CC(=O)[C@@H]1SCCSCCC(=O)O`
[out] 3.2

P: CCCC[C@H](C)C[C@H](O)/C=C/[C@H]1[C@H](O)CC(=O)[C@@H]1SCCCCCC(=O)O
Q: COc1cccc(C[C@H](O)/C=C/[C@H]2[C@H](O)CC(=O)[C@@H]2SCCCSCC(=O)O)c1
R: Cc1cccc(C[C@H](O)/C=C/[C@H]2[C@H](O)CC(=O)[C@@H]2SCCCSCC(=O)O)c1
S: CSCc1cccc(C[C@H](O)/C=C/[C@H]2[C@H](O)CC(=O)[C@@H]2SCCCSCC(=O)O)c1
[in] Sort low-to-high on Ki, please. Labels, requested order.
[out] P, R, S, Q
(P: 0.4 nM, R: 1.9 nM, S: 6 nM, Q: 9.9 nM)
